# assay-comment: qHTS assay to identify small molecule antagonists of the estrogen related receptor (ERR) signaling pathway from Tox21 library - cell viability counter screen (AID 1224834); note: % is set by controls: 0 for no effect and ±100 for the full control effect; nearly all actives have a fitted effect of over 30% in size
# condition-parameters: ERR reporter cells viability, CellTiter-Fluor, 17.5 h; series mostly up to 92.4 µM
Records with an inconclusive call do not appear. Active and inactive are the calls of the source. Calls come from the whole dose curve; as a rule, active = well fitted cell-killing curve with a large enough effect in the repeat runs; inconclusive = weak or mixed curves; inactive = flat fitted curve, though single readings scatter.
measure-name: viability change, negative = cytotoxic

Recorded viability change, negative = cytotoxic, per entry:
**Q:** Determine its reported viability change, negative = cytotoxic: CCCCCCCCOC(=O)CCCCCCCCC(=O)OCCCCCCCC
**A:** inactive

**Q:** Return value of viability change, negative = cytotoxic for input Cc1c[nH]c(=S)[nH]c1=O , no commentary.
**A:** inactive

**Q:** Note down viability change, negative = cytotoxic recorded for Cc1c(N)cccc1N
**A:** inactive

**Q:** Annotate the molecule COC(=O)N[C@H](C(=O)N[C@@H](Cc1ccccc1)[C@@H](O)CN(Cc1ccc(-c2ccccn2)cc1)NC(=O)[C@@H](NC(=O)OC)C(C)(C)C)C(C)(C)C with its measured viability change, negative = cytotoxic.
**A:** inactive

**Q:** Identify viability change, negative = cytotoxic associated with the molecule NCCCN1CCN(CCCN)CC1
**A:** inactive

Next:
**Q:** # return recorded viability change, negative = cytotoxic for entry CC(C)CCCCCCc1ccc(OCCOCCO)cc1
**A:** inactive

* * *

# system: Estrogen receptor beta (Homo sapiens)
# assay-comment: qHTS assay to identify small molecule antagonists of the estrogen receptor beta (ER-beta) signaling pathway (AID 1259378); note: % is set by controls: 0 for no effect and ±100 for the full control effect
# condition-parameters: ER-beta-UAS-bla HEK293T, beta-lactamase FRET ratio, 16 h; series mostly up to 92.4 µM
Records with an inconclusive call do not appear. Active and inactive are the calls of the source. Calls come from the whole dose curve; as a rule, active = well fitted inhibition curve with a large enough effect in the signal ratio in the repeat runs (not every such curve was filed as active); inconclusive = weak or mixed curves, or effect the other way; inactive = no such curve, though single readings can be large or run the other way; the % refers to the signal ratio.
measure-name: activity, negative = inhibition

For orientation, consider the following solved cases.
**Q:** Provide the reported activity, negative = inhibition (system: Estrogen receptor beta (Homo sapiens)) for CC(C)NCC(O)COc1ccc(CCOCC2CC2)cc1 (centres undefined)
**A:** inactive

**Q:** Look up and report measured activity, negative = inhibition (Estrogen receptor beta (Homo sapiens)) for the following compound: O=[N+]([O-])c1nccn1CO[C@@H](CO)[C@H](O)CO
**A:** inactive

**Q:** Under Estrogen receptor beta (Homo sapiens): report activity, negative = inhibition of CC1(O)CSC(C)(O)CS1 (centres undefined) .
**A:** inactive

**Q:** Provide Estrogen receptor beta (Homo sapiens) activity, negative = inhibition reading for CCOC(=O)NCCC[Si](OCC)(OCC)OCC .
**A:** inactive

**Q:** Please respond with reported activity, negative = inhibition (system Estrogen receptor beta (Homo sapiens)) for CCCCc1ccc2nc(NC(=O)OC)[nH]c2c1 .
**A:** inactive

For each of the compounds below, state activity, negative = inhibition.
1. Cc1ccsc1C(=CCCN1CCC[C@@H](C(=O)O)C1)c1sccc1C
2. ICCc1ccccc1
3. O=C(O)c1cccc(Cl)c1Cl
4. CC1=C(O)C(=O)OC1C (centres undefined)

**A:**
1. inactive
2. inactive
3. inactive
4. inactive

* * *

# assay-comment: Caspase-3/7 induction in HepG2 cells by small molecules, qHTS assay (AID 1346978); note: % is set by controls: 0 for no effect and ±100 for the full control effect; nearly all actives have a fitted effect of over 15% in size
# condition-parameters: HepG2 caspase-3/7 activation, Caspase-Glo luminescence, 17 h; series mostly up to 92.4 µM
Records with an inconclusive call do not appear. Activity calls are given as the source filed them. Calls come from the whole dose curve; as a rule, active = well fitted activation curve with a large enough effect in the repeat runs; inconclusive = weak or mixed curves; inactive = flat fitted curve, though single readings scatter.
measure-name: caspase activation

These recorded examples may help you get a feel for the data.
**Q:** Provide one value: measured caspase activation of Cc1c(C(=O)NCCO)[n+](=O)c2ccccc2n1[O-]
**A:** inactive

**Q:** Return the recorded caspase activation value; entry: CCCOCCC
**A:** inactive

**Q:** Item O=C(CC(=O)C(F)(F)F)c1ccccc1 : provide caspase activation
**A:** inactive

**Q:** Write down caspase activation measured for item OCCN(CCO)c1ccccc1
**A:** inactive

**Q:** For the compound CC(C)CC(=O)OCc1ccccc1 , report caspase activation.
**A:** inactive

Consider the following items and state reported caspase activation for each.
1. O=C(C(Cl)Cl)N1CCOC12CCCCC2
2. CCCCC1CCC(=O)O1 (centres undefined)
3. Cc1c(-c2ccccc2)oc2c(C(=O)OCCN3CCCCC3)cccc2c1=O
4. O=C1CCC(C2CCCCC2)CC1
5. CC(C)(C)C1CCCCC1=O (centres undefined)
6. OC[C@H]1O[C@@H](O[C@H]2[C@H](O)[C@@H](O)[C@H](O)O[C@@H]2CO)[C@H](O)[C@@H](O)[C@H]1O

**A:**
1: inactive; 2: inactive; 3: inactive; 4: inactive; 5: inactive; 6: inactive

* * *

# assay-comment: qHTS assay to identify small molecule agonists of the estrogen receptor beta (ER-beta) signaling pathway - cell viability counter screen (AID 1259380); note: % is set by controls: 0 for no effect and ±100 for the full control effect; nearly all actives have a fitted effect of over 30% in size
# condition-parameters: ER-beta-bla HEK293T viability, CellTiter-Glo luminescence, 16 h; series mostly up to 92.4 µM
Records with an inconclusive call do not appear. Active and inactive are the calls of the source. Calls follow the shape of the dose curve; as a rule, active = well fitted cell-killing curve with a large enough effect in the repeat runs; inconclusive = weak or mixed curves, or effect the other way; inactive = flat fitted curve, though single readings scatter.
Please answer using one outcome listed in active, inactive

**Q:** Which outcome was entered for the compound CCOC(=O)NCCC[Si](OCC)(OCC)OCC in this test?
**A:** inactive

More entries:
**Q:** Tell me the recorded outcome of this test for CN1CCN(C2=Nc3ccccc3Oc3ccc(Cl)cc32)CC1 .
**A:** inactive

**Q:** For CCN(CC)CCNC(=O)COc1ccc(Cl)cc1 , what call appears in the results of this test?
**A:** inactive

**Q:** Query: recorded result category for C=Cc1ccccc1 in this test
**A:** inactive

**Q:** Fill in: this test's call for Oc1ccccc1C=NCc1ccccc1 is ___
**A:** inactive

**Q:** Just curious, what result did C=O get here?
**A:** inactive

**Q:** // outcome(item) with item = CC(=O)N[C@@H](CC(C)C)C(=O)O
**A:** inactive

**Q:** Hey, what did the test say about CCCNC(C)C(=O)Nc1c(C)csc1C(=O)OC (stereo unspecified) ?
**A:** inactive

* * *

# assay-comment: qHTS assay for identifying genotoxic compounds that show differential cytotoxicity against isogenic chicken DT40 cell lines with known DNA damage response pathways - wild type cell line (AID 743012); note: nearly all actives have a fitted effect of over 60% in size
# condition-parameters: DT40 wild type chicken cells viability, CellTiter-Glo, 40 h; series mostly up to 68.4 µM
Results filed as inconclusive are left out. Active and inactive are the calls of the source. The call rests on the fitted dose curve; in most records, active means well fitted cell-killing curve with a large enough effect in the repeat runs; inconclusive means weak or mixed curves, or effect the other way; inactive means no such curve, though single readings can be large or run the other way.
Hi! Could you answer with just one of these? yes (1) for active, no (0) for inactive

Use the examples below as a reference point.
**Q:** Can you look up the reported call for O=C1CCCc2ccccc21 for me?
**A:** no (0)

**Q:** Recorded test outcome, item CCCNC(C)C(=O)Nc1c(C)csc1C(=O)OC (centres undefined)
**A:** no (0)

**Q:** Could you check what this test reported for NCCCN1CCN(CCCN)CC1 ?
**A:** no (0)

**Q:** Look up the recorded call for O=Cc1ccc(F)c(Br)c1 in this test.
**A:** no (0)

**Q:** Hi, do you know how CN(CC1(C)CCCO1)S(=O)(=O)c1ccc(Cl)c(S(N)(=O)=O)c1 (centres undefined) came out in this test?
**A:** no (0)

**Q:** What did this assay record as the result for CC(=O)N[C@@H](CC(C)C)C(=O)O ?
**A:** no (0)

Continuing:
**Q:** Query: recorded result category for C=CCCC=C in this test
**A:** no (0)

**Q:** Please let me know the test result on file for CCOC(=O)NCCC[Si](OCC)(OCC)OCC .
**A:** no (0)

**Q:** Recorded call for CCCCc1ccc2nc(NC(=O)OC)[nH]c2c1 ?
**A:** yes (1)

**Q:** Field: outcome | Entry: CCOC(=O)COc1ccc2c(c1)CC(NCC(O)c1cccc(Cl)c1)CC2 (centres undefined)
**A:** yes (1)

* * *

# system: Peroxisome proliferator-activated receptor gamma (Homo sapiens)
# assay-comment: qHTS assay to identify small molecule agonists of the peroxisome proliferator-activated receptor gamma (PPARg) signaling pathway (AID 743094); for activation: % is set by controls: 0 for no effect and ±100 for the full control effect
# condition-parameters: HEK293H PPARg-UAS-bla, beta-lactamase FRET ratio, 17 h; series mostly up to 57 µM
Records with an inconclusive call do not appear. Active and inactive are the calls of the source. Calls follow the shape of the dose curve; as a rule, active = well fitted activation curve with a large enough effect in the signal ratio in the repeat runs (not every such curve was filed as active); inconclusive = weak or mixed curves, or effect the other way; inactive = no such curve, though single readings can be large or run the other way; the % refers to the signal ratio.
API: response.call in active, inactive

**Q:** # fetch the recorded call for CCCN(CCC)C(=O)C(CCC(=O)O)NC(=O)c1ccccc1 (stereo not drawn) here
**A:** inactive

**Q:** Any idea what this test logged for OCC(CBr)(CBr)CBr ?
**A:** inactive

Others:
**Q:** For COc1ccccc1N1CCN(CCCNc2cc(=O)n(C)c(=O)n2C)CC1 , which call appears in the assay record?
**A:** inactive

**Q:** GET /call?item= CCCNC(C)(C)COC(=O)c1ccccc1 returns the recorded outcome of this test.
**A:** active

**Q:** # fetch the recorded call for CCCCNC(=S)NCCCC here
**A:** inactive

**Q:** What is the recorded call for this compound in the test? COC(=O)c1ccc2cc(C(=O)OC)ccc2c1
**A:** inactive

**Q:** Per the assay record, what outcome was assigned to Cc1cc(S(=O)(=O)O)c(N)cc1Cl ?
**A:** inactive
